Assay Notes: Agonist activity at AMPA receptor in rat cortical neurons assessed as change in increase in AMPA current
Assay type: functional
Observable: EC2 (µM)
Give bare numbers, in µM.

NS(=O)(=O)c1cc2c(cc1Cl)NC(C1CC3C=CC1C3)NS2(=O)=O (centres undefined) [CYCLOTHIAZIDE] ... 1.6
O=C1c2cc3nnn(CCc4cccc(F)c4)c(=O)c3cc2OCN1C1CC1 ... 0.1
CC1(C)CC(=O)C2=C(C1)OC(N)=C(C#N)C2c1ccc2ccccc2c1 (centres undefined) ... 1.6

Next compound, please.
Data request: Given O=S1(=O)N[C@H]2CCCN2c2ccc(Cl)cc21 , state its recorded EC2.
Data returned: 60

###

Experimental System: UniProtKB P42263
Sequence (P42263 whole entry): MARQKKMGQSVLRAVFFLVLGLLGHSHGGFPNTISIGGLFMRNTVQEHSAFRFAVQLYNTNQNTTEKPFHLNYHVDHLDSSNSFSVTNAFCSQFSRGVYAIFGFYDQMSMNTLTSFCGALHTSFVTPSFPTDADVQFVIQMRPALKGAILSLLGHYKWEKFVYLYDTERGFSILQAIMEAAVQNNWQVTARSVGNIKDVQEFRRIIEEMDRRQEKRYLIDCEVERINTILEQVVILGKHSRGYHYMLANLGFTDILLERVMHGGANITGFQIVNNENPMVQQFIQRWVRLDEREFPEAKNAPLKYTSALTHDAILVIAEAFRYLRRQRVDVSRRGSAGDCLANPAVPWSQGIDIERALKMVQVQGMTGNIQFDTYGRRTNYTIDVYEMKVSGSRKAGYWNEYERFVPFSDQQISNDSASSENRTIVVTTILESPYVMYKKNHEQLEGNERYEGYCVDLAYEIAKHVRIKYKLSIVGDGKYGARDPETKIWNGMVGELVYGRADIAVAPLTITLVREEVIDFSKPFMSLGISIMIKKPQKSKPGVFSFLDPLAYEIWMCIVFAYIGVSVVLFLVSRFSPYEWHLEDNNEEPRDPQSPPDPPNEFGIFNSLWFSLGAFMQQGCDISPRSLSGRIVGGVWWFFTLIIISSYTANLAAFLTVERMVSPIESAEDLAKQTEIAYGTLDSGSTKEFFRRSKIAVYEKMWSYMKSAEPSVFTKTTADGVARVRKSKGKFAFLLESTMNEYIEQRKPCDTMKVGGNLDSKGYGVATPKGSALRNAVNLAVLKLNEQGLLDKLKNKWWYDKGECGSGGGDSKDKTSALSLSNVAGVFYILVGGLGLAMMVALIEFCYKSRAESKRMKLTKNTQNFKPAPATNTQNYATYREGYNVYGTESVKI
Assay Notes: Inhibition of GluR3 expressed in HEK cells
Observable: EC50 (nM)
One number for each entry, in nM.

Data request: Given CC(CNS(=O)(=O)C(C)C)c1ccc(-c2ccc(C#N)cc2)cc1 (stereo unspecified) , state its recorded EC50.
Data returned: 1660

###

Experimental System: Glutamate receptor AMPA 3/4 (Rattus norvegicus, UniProt P19492+P19493)
Sequence (P19492 whole entry): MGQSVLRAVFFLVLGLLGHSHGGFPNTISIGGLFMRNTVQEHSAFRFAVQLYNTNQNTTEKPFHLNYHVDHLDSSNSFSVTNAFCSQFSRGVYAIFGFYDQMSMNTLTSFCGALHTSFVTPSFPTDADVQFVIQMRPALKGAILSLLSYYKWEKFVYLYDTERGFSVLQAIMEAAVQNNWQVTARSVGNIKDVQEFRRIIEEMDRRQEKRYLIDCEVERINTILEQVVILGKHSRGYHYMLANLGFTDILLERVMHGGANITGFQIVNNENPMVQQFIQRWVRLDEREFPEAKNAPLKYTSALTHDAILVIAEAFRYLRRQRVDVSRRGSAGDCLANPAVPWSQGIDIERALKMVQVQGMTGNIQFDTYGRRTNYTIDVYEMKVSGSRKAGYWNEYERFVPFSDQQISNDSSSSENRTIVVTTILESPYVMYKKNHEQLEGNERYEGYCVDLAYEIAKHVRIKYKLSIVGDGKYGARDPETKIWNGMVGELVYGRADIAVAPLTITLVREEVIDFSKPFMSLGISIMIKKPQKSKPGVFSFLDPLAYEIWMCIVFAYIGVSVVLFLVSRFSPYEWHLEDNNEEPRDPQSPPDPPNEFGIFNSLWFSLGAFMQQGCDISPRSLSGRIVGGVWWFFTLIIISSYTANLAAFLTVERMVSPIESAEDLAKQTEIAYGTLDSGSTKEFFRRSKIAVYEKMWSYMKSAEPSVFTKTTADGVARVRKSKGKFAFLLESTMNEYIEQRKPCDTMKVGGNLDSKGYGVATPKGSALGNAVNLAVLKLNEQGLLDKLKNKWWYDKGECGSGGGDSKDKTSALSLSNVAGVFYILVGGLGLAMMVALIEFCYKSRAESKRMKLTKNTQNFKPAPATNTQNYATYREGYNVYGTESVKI
Sequence (P19493 whole entry): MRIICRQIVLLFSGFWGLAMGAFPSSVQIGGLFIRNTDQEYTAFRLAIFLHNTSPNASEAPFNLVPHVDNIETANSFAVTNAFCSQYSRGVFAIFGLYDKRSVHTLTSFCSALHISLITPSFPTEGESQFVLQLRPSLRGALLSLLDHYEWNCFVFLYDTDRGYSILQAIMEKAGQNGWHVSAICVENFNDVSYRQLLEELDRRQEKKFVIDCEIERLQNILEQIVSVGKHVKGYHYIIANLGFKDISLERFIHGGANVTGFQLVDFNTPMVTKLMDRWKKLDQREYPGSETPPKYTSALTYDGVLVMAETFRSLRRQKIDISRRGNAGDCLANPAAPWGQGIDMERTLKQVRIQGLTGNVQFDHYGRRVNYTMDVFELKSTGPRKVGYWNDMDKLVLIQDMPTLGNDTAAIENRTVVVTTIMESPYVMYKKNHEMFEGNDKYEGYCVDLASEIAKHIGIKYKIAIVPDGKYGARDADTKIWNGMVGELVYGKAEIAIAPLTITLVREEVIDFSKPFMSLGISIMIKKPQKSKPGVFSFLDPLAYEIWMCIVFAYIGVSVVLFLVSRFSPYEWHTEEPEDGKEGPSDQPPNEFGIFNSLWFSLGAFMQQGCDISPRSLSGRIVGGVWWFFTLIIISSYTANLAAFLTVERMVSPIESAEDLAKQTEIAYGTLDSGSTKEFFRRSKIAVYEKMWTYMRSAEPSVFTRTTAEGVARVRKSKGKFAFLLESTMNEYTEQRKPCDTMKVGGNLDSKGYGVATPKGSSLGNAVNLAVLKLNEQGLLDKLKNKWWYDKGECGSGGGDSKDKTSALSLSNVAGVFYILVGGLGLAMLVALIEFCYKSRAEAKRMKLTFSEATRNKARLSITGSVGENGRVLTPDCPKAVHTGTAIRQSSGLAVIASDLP
Assay Notes: Inhibition of GluR3/4 rat in hippocampal neuron
Exercise: for every item that follows, state its recorded EC50.
One number for each entry, in µM.

O=C(c1ccc2c(c1)OCCO2)N1CCCCC1 ... 1600
O=C1c2cc3c(cc2OC2CCCN12)OCCO3 (stereo not drawn) ... 43.7

Data request: Given O=C(c1ccc2nccnc2c1)N1CCCCC1 [CX516] , state its recorded EC50.
Data returned: 95

###

Experimental System: UniProt P48058
Sequence (P48058 whole entry): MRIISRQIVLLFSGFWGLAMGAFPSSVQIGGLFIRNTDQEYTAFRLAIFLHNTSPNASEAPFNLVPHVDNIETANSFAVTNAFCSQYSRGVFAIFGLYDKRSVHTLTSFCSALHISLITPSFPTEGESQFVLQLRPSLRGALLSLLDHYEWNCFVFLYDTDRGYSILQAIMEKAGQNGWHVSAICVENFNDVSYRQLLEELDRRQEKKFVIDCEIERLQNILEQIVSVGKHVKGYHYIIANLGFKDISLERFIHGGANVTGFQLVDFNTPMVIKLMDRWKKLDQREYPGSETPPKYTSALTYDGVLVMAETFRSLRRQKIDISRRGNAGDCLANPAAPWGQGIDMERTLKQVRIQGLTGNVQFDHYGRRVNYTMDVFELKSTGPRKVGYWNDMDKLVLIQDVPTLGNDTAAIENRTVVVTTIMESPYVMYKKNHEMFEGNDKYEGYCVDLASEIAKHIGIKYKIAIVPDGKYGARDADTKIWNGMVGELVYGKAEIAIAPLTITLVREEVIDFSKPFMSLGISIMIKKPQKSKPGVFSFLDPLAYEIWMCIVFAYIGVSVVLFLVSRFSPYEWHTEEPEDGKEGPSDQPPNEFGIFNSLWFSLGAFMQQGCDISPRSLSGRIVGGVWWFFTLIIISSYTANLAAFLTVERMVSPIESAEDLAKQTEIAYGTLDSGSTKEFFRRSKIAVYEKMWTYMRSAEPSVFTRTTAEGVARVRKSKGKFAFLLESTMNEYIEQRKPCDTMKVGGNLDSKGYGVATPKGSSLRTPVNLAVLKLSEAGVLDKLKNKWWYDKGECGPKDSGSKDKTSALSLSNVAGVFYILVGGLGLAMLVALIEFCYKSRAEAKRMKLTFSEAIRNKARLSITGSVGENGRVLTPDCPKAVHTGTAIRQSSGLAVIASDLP
Assay Notes: Inhibition of GluR4 expressed in HEK293 cells
Exercise: for every item that follows, state its recorded EC50.
Give bare numbers, in nM.

Batch of 2 compounds: report EC50 for each.
1. CC(C)S(=O)(=O)NC[C@H](C)c1ccc(-c2ccc(CCNS(C)(=O)=O)cc2)cc1
2. CC(C)S(=O)(=O)N[C@@H]1CCC[C@@H]1c1ccc(I)cc1

Data returned:
[150, 230]

Batch of 2 compounds: report EC50 for each.
1. CC(CNS(C)(=O)=O)c1ccc(C(C)(C)C)cc1 (centres undefined)
2. CC(C)S(=O)(=O)N[C@@H]1CCC[C@@H]1c1ccc(Br)cc1

Data returned:
1200
520

###

Exercise: for every item that follows, state its recorded pEC50.
Experimental System: Glutamate receptor 2 (Homo sapiens, UniProt P42262)
Sequence (P42262 whole entry): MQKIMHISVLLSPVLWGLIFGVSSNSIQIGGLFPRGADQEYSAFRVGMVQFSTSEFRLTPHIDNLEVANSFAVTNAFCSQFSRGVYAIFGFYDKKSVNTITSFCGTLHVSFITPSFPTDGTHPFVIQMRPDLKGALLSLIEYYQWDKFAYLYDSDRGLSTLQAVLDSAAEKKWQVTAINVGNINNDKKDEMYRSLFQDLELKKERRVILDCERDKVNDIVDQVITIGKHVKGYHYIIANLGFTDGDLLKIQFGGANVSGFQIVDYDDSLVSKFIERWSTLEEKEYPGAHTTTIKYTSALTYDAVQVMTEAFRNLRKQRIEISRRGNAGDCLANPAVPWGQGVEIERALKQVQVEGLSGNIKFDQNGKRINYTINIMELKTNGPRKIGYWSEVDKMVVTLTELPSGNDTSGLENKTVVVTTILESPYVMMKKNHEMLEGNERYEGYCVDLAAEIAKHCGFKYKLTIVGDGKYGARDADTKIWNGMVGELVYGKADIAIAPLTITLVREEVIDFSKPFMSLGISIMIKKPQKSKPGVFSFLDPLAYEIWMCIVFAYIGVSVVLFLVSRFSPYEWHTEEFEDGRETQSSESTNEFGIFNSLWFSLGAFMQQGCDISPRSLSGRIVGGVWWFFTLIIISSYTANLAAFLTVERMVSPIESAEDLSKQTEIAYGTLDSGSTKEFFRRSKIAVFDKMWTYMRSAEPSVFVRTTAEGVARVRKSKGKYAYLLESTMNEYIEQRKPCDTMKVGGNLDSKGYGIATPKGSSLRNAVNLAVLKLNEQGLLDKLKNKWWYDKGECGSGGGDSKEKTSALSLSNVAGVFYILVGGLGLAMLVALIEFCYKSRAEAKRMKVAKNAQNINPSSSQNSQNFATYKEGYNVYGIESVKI
Assay Notes: Inhibition of human recombinant GluR2
pEC50: −log10 of the molar value.

Record excerpt, results attached:
CC(C)S(=O)(=O)N[C@H]1Cc2ccc(-n3nc(C(F)(F)F)c4c3CCCC4)cc2C1 ... > 3.52
CC(C)S(=O)(=O)N[C@@H]1CN(C)C[C@@H]1c1ccc(-c2ccc(N(C)S(C)(=O)=O)cc2)cc1 ... 5.80

Batch of 3 compounds: report pEC50 for each.
1. O=C1CCCN1[C@H]1Cc2ccc(-n3cc(C4CC4)c(C(F)(F)F)n3)cc2C1
2. O=C1CCCN1Cc1ccc(-n2nc(C(F)(F)F)c3c2COCC3)cc1F
3. CN(C)C(=O)c1ccc(-n2nc(C(F)(F)F)c3c2CCOC3)cc1

Data returned:
1. > 3.52
2. > 3.52
3. > 3.52
